Tested on: arachidonic acid-induced inflamed mouse ear
Test: Arachidonic Acid-Induced Inflamed Mouse Ear Test
Format: in vivo, Adult male Cox ICR mice
Settings: Mus musculus; 50 ug/ear topical, 3 hours; read-out: Percent Inhibition at 50 ug/ear topical dose
property_measured: inhibition in vivo at 50 µg/ear
Kindly report the value followed by its unit.

The following molecules have reported results that may help.
1) C#CCC(=O)c1cc(C(C)(C)C)c(O)c(C(C)(C)C)c1    61.6%
2) C=C=CC(=O)c1cc(C(C)(C)C)c(O)c(C(C)(C)C)c1    79.6%
3) CCOC(CC(=O)c1cc(C(C)(C)C)c(O)c(C(C)(C)C)c1)OCC    82.8%
4) C#CCCCC(=O)c1cc(C(C)(C)C)c(O)c(C(C)(C)C)c1    43.9%
5) C#CC(=O)CCc1cc(C(C)(C)C)c(O)c(C(C)(C)C)c1    64.9%
6) C#CC(=O)/C=C/c1cc(C(C)(C)C)c(O)c(C(C)(C)C)c1    34.8%

Ask: Kindly indicate its recorded inhibition in vivo at 50 µg/ear. Item: C#CCCC(C)C(=O)c1cc(C(C)(C)C)c(O)c(C(C)(C)C)c1 (centres unmarked)
Reply: 74.4%

Ask: Kindly indicate its recorded inhibition in vivo at 50 µg/ear. Item: "CC(C)(C)c1cc(C(=O)CC2OCCO2)cc(C(C)(C)C)c1O"
Reply: 69.1%

Measured values drawn from patent US4708966A for this set.
